Data provenance is PubChem BioAssay.

# assay_comment: reducers of endogenous Her2 protein level, primary screen, SKBR3 breast tumor cells, AlphaScreen, ATP viability (AID 461);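 further: percent of carrier control wells set as 100% viability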
# test_settings: 18-24 h, measured here: SKBR3 viability, ATP luminescence, at 10 µM
assay_readout: viability (%)
// units = %; emit number, no label

Previously resolved entries follow.
>  <compound>
CCCCN(C)Cc1c(C)[nH]c2c(Cl)cccc2c1=O

>  <assay_readout>
viability

>  <recorded_value>
84.5

$$$$
>  <compound>
NC(=O)c1c(NC(=O)CN2CCCC2)sc2c1CCCC2

>  <assay_readout>
viability

>  <recorded_value>
104

$$$$
>  <compound>
CCOC(=O)c1ccc(-c2c(C(=O)OCC)oc3cc(O)c(CC)cc3c2=O)o1

>  <assay_readout>
viability

>  <recorded_value>
96.5

$$$$

Problem: Look at this compound and give its reported viability. Cc1ccc(C(c2sc3nc(C)nn3c2O)N2CC(C)OC(C)C2)cc1 (centres undefined)
Solution: 97

Problem: Let us now turn to CCCn1c2ccccc2c2nnc(SCC(=O)OCC)nc21
Solution: 95

Problem: Let us now turn to CC1CCN(S(=O)(=O)c2cn(CC(=O)N3CCN(C)CC3)c(=O)c3ccccc23)CC1
Solution: 122

Problem: Let us now turn to Cc1csc(NC(=O)CCCSc2nc3ccccc3s2)n1
Solution: 100

Problem: Let us now turn to O=C(CSc1ncn[nH]1)c1ccco1
Solution: 120

Problem: Let us now turn to CCn1c(SCC(=O)Nc2nccs2)nnc1-c1ccncc1
Solution: 101

Problem: Let us now turn to CCN(C(=O)c1cc(Cl)ccc1OC)C1CCCCC1
Solution: 86.5

Problem: Let us now turn to CCC1Oc2ccccc2N(CC(=O)Nc2ccc(OC)cc2OC)C1=O (centres undefined)
Solution: 90.5

Problem: Let us now turn to Cc1nc2cc(-n3ccc(=O)cc3)ccc2n1-c1ccccc1
Solution: 102

====

# assay_comment: growth inhibitors of H69AR lung tumor, primary screen, human, duplicate replicates (AID 580);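 further: 100% = mean luminescence of untreated wells and 0% = no signal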
# test_settings: H69AR lung tumor cells viability, ATP luminescence, 72 h; at 10 µM; stronger effect = lower value
Catalogue of compounds with associated viability
// units = %; emit number, no label

>  <compound>
CCOc1ccc(-n2cc(C(=O)N3CCN(C)CC3)c3cc(OC)c(OC)cc3c2=O)cc1

>  <units_of_measure>
%

>  <viability>
97.1

$$$$
>  <compound>
ON1C2CCCCC2N(O)C1c1c(F)c(F)c(F)c(F)c1F (stereo unspecified)

>  <units_of_measure>
%

>  <viability>
92.8

$$$$
>  <compound>
CC1=C(C#N)C(=O)NC(C)(C)C1

>  <units_of_measure>
%

>  <viability>
89.3

$$$$
>  <compound>
CCOC(=O)N1CCN(c2c(NCC3CCN(Cc4cccc(C)c4)CC3)c(=O)c2=O)CC1

>  <units_of_measure>
%

>  <viability>
107

$$$$
>  <compound>
O=C(CN1C(=O)c2cccc3cccc1c23)NCC1CCCO1 (stereo unspecified)

>  <units_of_measure>
%

>  <viability>
96.5

$$$$

Problem: Look at this compound and give its reported viability. Cc1[nH]c(=O)[nH]c(=O)c1S(=O)(=O)N1CCCC(C(=O)NCc2ccco2)C1 (stereo unspecified)
Solution: 86.4
